Below, each of the compounds is paired with its reported CL(K2nd(M-1s-1)) value.
target: Cathepsin L (human) (Homo sapiens, UniProt P07711); construct: Cathepsin L (human liver) Calbiochem; purchased Calbiochem; host or cells: human liver (tissue-derived); experiment: Protease assay, fluorogenic substrate Z-Phe-Arg-AMC: Cathepsin L; format: biochemical; conditions: CL=CathepsinL
Sequence (P07711 114-333): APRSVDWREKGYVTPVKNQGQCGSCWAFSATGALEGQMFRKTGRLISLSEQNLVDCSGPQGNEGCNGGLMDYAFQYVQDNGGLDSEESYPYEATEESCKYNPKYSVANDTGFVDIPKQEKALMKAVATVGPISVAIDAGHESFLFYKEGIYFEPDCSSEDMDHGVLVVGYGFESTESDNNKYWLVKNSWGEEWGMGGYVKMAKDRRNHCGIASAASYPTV
assay-endpoint: CL(K2nd(M-1s-1)) (M⁻¹ s⁻¹)

1. CCOC(=O)C=CC(O)C(CCc1ccccc1)NC(=O)C(Cc1ccccc1)NC(=O)OCc1ccccc1 (single isomer, unassigned)    77
2. CCOC(=O)/C=C/[C@@H](O)[C@H](CCc1ccccc1)NC(=O)[C@H](Cc1ccccc1)NC(=O)OCc1ccccc1    1127
3. CCOC(=O)/C=C/C(=O)[C@H](C)NC(=O)[C@H](Cc1ccccc1)NC(=O)OCc1ccccc1    197273
4. CCOC(=O)/C=C/C(=O)[C@H](CCc1ccccc1)NC(=O)[C@H](CC(C)C)NC(=O)OCc1ccccc1 [drawing 39]    29885
5. CCOC(=O)/C=C/C(=O)[C@H](CCc1ccccc1)NC(=O)[C@H](Cc1ccccc1)NC(=O)OCc1ccccc1 [drawing 38]    45364
6. CCOC(=O)/C=C/C(=O)[C@H](CC(C)C)NC(=O)[C@H](Cc1ccccc1)NC(=O)OCc1ccccc1    758621
7. O=C(O)/C=C/[C@@H](O)[C@H](CCc1ccccc1)NC(=O)[C@H](Cc1ccccc1)NC(=O)OCc1ccccc1    882

====

target: Cathepsin L (human) (Homo sapiens); construct: Cathepsin L (human liver) Calbiochem; purchased Calbiochem; host or cells: human liver (tissue-derived); experiment: Protease assay, fluorogenic substrate Z-Phe-Arg-AMC: Cathepsin L; format: biochemical; details: CL=CathepsinL
Overview of recorded CL(K2nd(M-1s-1)) for various molecules
assay-endpoint: CL(K2nd(M-1s-1))

1. CC(C)C[C@H](NC(=O)[C@H](Cc1ccccc1)NC(=O)OCc1ccccc1)C(=O)/C=C/S(=O)(=O)c1ccccc1    383272 M⁻¹ s⁻¹
2. CCOC(=O)/C=C/C(=O)[C@H](C)NC(=O)[C@H](CC(C)C)NC(=O)OCc1ccccc1    9821 M⁻¹ s⁻¹
3. CCOC(=O)/C=C/[C@@H](O)[C@H](C)NC(=O)[C@H](Cc1ccccc1)NC(=O)OCc1ccccc1    828 M⁻¹ s⁻¹
4. CCOC(=O)/C=C/[C@@H](O)[C@H](CCc1ccccc1)NC(=O)[C@H](Cc1ccccc1)NC(=O)N1CCOCC1    1860 M⁻¹ s⁻¹

====

molecular target: Cathepsin B (human) (Homo sapiens, UniProt P07858); construct: Cathepsin B (human liver) Calbiochem; purchased Calbiochem; host or cells: human liver (tissue-derived); test: Protease assay, fluorogenic substrate Z-Phe-Arg-AMC: Cathepsin B; type: biochemical; settings: CB=CathepsinB
Cut-off 4000 M⁻¹ s⁻¹ on CB(K2nd(M-1s-1)), inclusive. At or above means Yes; below means No.

1. CCOC(=O)/C=C/C(=O)[C@H](CCc1ccccc1)NC(=O)[C@H](CC(C)C)NC(=O)OCc1ccccc1 [drawing 39]    Yes
2. CCOC(=O)/C=C/C(=O)[C@H](CC(C)C)NC(=O)[C@H](Cc1ccccc1)NC(=O)OCc1ccccc1    Yes
3. CCOC(=O)/C=C/[C@@H](O)[C@H](CCc1ccccc1)NC(=O)[C@H](Cc1ccccc1)NC(=O)N1CCOCC1    Yes
4. CC(C)C[C@H](NC(=O)[C@H](Cc1ccccc1)NC(=O)OCc1ccccc1)C(=O)/C=C/S(=O)(=O)c1ccccc1    Yes
5. CCOC(=O)/C=C/[C@@H](O)[C@H](CCc1ccccc1)NC(=O)[C@H](Cc1ccccc1)NC(=O)OCc1ccccc1    No

====

Biological target: Falcipain 2 (Plasmodium falciparum, UniProt Q8I6U4)
Construct: made in house
Sequence (Q8I6U4 244-484): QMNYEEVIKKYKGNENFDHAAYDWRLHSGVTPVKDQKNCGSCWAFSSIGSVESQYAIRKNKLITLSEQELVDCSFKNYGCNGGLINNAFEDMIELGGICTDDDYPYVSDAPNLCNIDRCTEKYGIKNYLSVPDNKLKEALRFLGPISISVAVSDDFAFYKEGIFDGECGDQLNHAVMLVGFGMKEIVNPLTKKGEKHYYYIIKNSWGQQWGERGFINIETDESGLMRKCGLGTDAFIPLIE
Assay: Protease assay, fluorogenic substrate Z-Phe-Arg-AMC: Falcipain 2
Format: biochemical
Settings: FP2=Falcipain2
From the text: 2.1.1. Protease Assays as shown in tables 1 and 2: Cathepsin L (human), Cathepsin B (human), Rhodesain (Trypanosoma brucei rhodesiense), Falcipain 2 (Plasmodium falciparum) Enzyme assays used to identify inhibitors of the target cysteine proteases. The effect is detected measuring fluorescence increase due to hydrolysis of fluorogenic substrates by the target enzymes in absence and presence of potential inhibitors. • a. […] Measurement device: Tecan Fluorescence spectrophotometer infinite F200 Pro • f. […]
assay-endpoint: FP2(K2nd(M-1s-1)) (M⁻¹ s⁻¹)

1. O=C(O)/C=C/[C@@H](O)[C@H](CCc1ccccc1)NC(=O)[C@H](Cc1ccccc1)NC(=O)OCc1ccccc1    29
2. CCOC(=O)/C=C/C(=O)[C@H](CCc1ccccc1)NC(=O)[C@H](Cc1ccccc1)NC(=O)OCc1ccccc1 [drawing 38]    17099
3. CCOC(=O)/C=C/[C@@H](O)[C@H](CCc1ccccc1)NC(=O)[C@H](Cc1ccccc1)NC(=O)OCc1ccccc1    557
4. CCOC(=O)/C=C/C(=O)[C@H](CCc1ccccc1)NC(=O)[C@H](CC(C)C)NC(=O)OCc1ccccc1 [drawing 39]    6035
5. CCOC(=O)/C=C/C(=O)[C@H](C)NC(=O)[C@H](Cc1ccccc1)NC(=O)OCc1ccccc1    28285
6. CCOC(=O)/C=C/C(=O)[C@H](C)NC(=O)[C@H](CC(C)C)NC(=O)OCc1ccccc1    12013

====

molecular target: Rhodesain (Trypanosoma brucei rhodesiense)
Sequence (Q95PM0 entry or part of it): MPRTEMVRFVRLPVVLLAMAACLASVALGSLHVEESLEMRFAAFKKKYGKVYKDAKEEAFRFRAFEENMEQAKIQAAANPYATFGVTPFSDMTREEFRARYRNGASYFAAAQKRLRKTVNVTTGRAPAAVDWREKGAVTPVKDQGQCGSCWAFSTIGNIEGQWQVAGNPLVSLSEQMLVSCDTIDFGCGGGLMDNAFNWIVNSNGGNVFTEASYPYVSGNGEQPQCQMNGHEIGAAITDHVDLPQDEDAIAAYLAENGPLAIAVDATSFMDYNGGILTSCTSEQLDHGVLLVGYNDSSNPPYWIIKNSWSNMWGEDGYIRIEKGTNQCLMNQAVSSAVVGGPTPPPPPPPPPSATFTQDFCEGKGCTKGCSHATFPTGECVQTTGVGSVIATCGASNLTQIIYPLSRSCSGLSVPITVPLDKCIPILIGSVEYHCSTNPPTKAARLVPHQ
pIC50: −log10 of the molar value.
So basically: pIC50 at 6 or higher? That is yes (1). Lower than 6? That is no (0).

1) CCOC(=O)/C=C/C(=O)[C@H](C)NC(=O)[C@H](Cc1ccccc1)NC(=O)OCc1ccccc1    yes (1)
2) CCOC(=O)/C=C/C(=O)[C@H](CC(C)C)NC(=O)[C@H](Cc1ccccc1)NC(=O)OCc1ccccc1    yes (1)
3) CCOC(=O)/C=C/[C@@H](O)[C@H](C)NC(=O)[C@H](Cc1ccccc1)NC(=O)OCc1ccccc1    no (0)
4) CC(C)C[C@H](NC(=O)[C@H](Cc1ccccc1)NC(=O)OCc1ccccc1)C(=O)/C=C/S(=O)(=O)c1ccccc1    yes (1)
5) CCOC(=O)/C=C/[C@@H](O)[C@H](CCc1ccccc1)NC(=O)[C@H](Cc1ccccc1)NC(=O)OCc1ccccc1    no (0)
6) CCOC(=O)/C=C/C(=O)[C@H](CCc1ccccc1)NC(=O)[C@H](Cc1ccccc1)NC(=O)OCc1ccccc1 [drawing 38]    yes (1)
7) CCOC(=O)/C=C/C(=O)[C@H](CCc1ccccc1)NC(=O)[C@H](CC(C)C)NC(=O)OCc1ccccc1 [drawing 39]    yes (1)
